# System: HOP-62 NSCLC
# Procedure Summary: NCI tumour cell line growth inhibition, 48 h
Outcome Measure: GI50

Q: Name the reported GI50 value associated with the molecule `COc1cc2c(cc1OC)-c1c(c3ccc([N+](=O)[O-])cc3c(=O)n1CCCBr)C2=O`
Result: 20.7 µM

Q: How about this molecule: `COc1ccc(S(=O)(=O)Nc2c(/C=C\c3cc(OC)c(OC)c(OC)c3)ccc(OC)c2O)cc1OC`
Result: 0.61 µM

Further cases:
Q: Name the reported GI50 value associated with the molecule `COc1cccc(-c2nn(C)c3sc(C(=O)NCCN4CCN(c5ccccc5F)CC4)cc23)c1`
Result: 25.8 µM

Q: How about this molecule: `Nc1ncnc2c1c(-c1ccc(Oc3ccccc3)cc1)nn2C[C@H]1SSC[C@H]1O`
Result: 0.039 µM

Q: How about this molecule: `CC/C(=C(/c1ccc(Cl)cc1)c1ccc(OCCCN(C)C)cc1)c1ccc(OC)cc1`
Result: 7.76 µM

Q: How about this molecule: `C=C(C=O)[C@@H]1CC=C(C=O)CC1`
Result: 24.8 µM

Q: How about this molecule: `O=c1c(-c2nc3ccccc3[nH]2)cc2ccccc2n1Cc1cn(Cc2ccc(F)cc2)nn1`
Result: 0.222 µM

---

Some molecules, each annotated with its measured TGI.
# System: NCI-H460 lung
# Procedure Summary: NCI tumour cell line growth inhibition, 48 h

Illustrative cases are given below, each with its answer.
Q: Name the reported TGI value associated with the molecule `CO[C@]12C=C/C(=C(/C(=O)OCc3cccnc3)C(=O)CCCCCCCC[C@]3(OC)C=C/C(=C(/C(=O)OCc4cccnc4)C(=O)CCCCCCCC1)O3)O2`
Result: 1.02 µM

Q: How about this molecule: `CNC(=S)c1nnsc1N`
Result: 41.5 µM

Q: How about this molecule: `O=c1oc2ccc([N+](=O)[O-])cc2cc1-c1csc(-c2ccccc2)n1`
Result: > 100 µM

Q: How about this molecule: `O=C1CCC(=O)C12CCc1ccccc12`
Result: > 100 µM

Further cases:
Q: Name the reported TGI value associated with the molecule `CCOC(=O)/C(C#N)=C/c1[nH]c(C)c(C)c1C`
Result: > 100 µM

Q: How about this molecule: `COc1ccc2c(C(=O)NCCCCCC(=O)O)cc3cc4c(cc3c2c1)OCO4`
Result: > 100 µM

Q: How about this molecule: `COc1ccc(-c2cc(-c3ccncc3)nc(N)c2-c2ccc(F)cc2)cc1`
Result: 57.6 µM

Q: How about this molecule: `O=[N+]([O-])C(=C(\Cl)NCCO)/C(Cl)=C(/Cl)Br`
Result: 10.8 µM

Q: How about this molecule: CC1=NN(c2cccc(S(=O)(=O)O)c2)C2(C1)SCC(=O)N2c1nc2ccccc2s1 (stereo unspecified)
Result: > 100 µM

Q: How about this molecule: O=c1c2ccc(Br)cc2nc(-c2ccccc2)n1NC1OC(CO)C(O)C(O)C1O (stereo unspecified)
Result: > 100 µM

Q: How about this molecule: CCOC(=O)C1=CN(Cc2ccccc2)C2ON=C(c3ccc(Cl)cc3)C2C1 (stereo unspecified)
Result: > 65 µM

---

Some compounds, each annotated with its measured TGI.
# System: MDA-MB-435
# Procedure Summary: NCI tumour cell line growth inhibition, 48 h

Illustrative cases are given below, each with its answer.
Q: Name the reported TGI value associated with the compound `O=C1/C=C/[C@@H](O)[C@@H]2C[C@@H](O)C[C@H]2/C=C/CCCCO1`
Result: > 26.8 µM

Q: How about this compound: `CC(C)(C)OC(=O)/C=C/[C@@H](CCC(=O)/C=C/[C@H](/C=C\CCCC(=O)O)NC1(c2ccccc2)c2ccccc2-c2ccccc21)O[Si](C)(C)C(C)(C)C`
Result: 48.7 µM

Q: How about this compound: `CNC(=S)c1nnsc1N`
Result: > 100 µM

Further cases:
Q: Name the reported TGI value associated with the compound `COC(=O)c1cccc(COc2ccc([N+](=O)[O-])cc2Cl)c1`
Result: > 100 µM

Q: How about this compound: `Clc1ccc2c(NCCCNCc3ccc4c(c3)OCO4)ccnc2c1`
Result: 3.29 µM

Q: How about this compound: `COc1cccc(-c2nn(C)c3sc(C(=O)NCCN4CCN(c5ccccc5F)CC4)cc23)c1`
Result: > 100 µM

Q: How about this compound: `O=C(O)c1cccc(F)c1C(=O)c1ccc2ccccc2c1`
Result: > 100 µM

Q: How about this compound: `CN(CC(=O)O)Cc1c[nH]c2ccccc12`
Result: > 100 µM

Q: How about this compound: `CC1(C)CC(=O)C(/C=N/c2nc(-c3cccc([N+](=O)[O-])c3)cs2)=C(O)C1`
Result: 60.7 µM

Q: How about this compound: FC1(F)SC2CCCCCCCCCCC2C1(F)F (stereo not given)
Result: > 100 µM

---

Some molecules, each annotated with its measured TGI.
# System: SF-268 CNS
# Procedure Summary: NCI tumour cell line growth inhibition, 48 h

Illustrative cases are given below, each with its answer.
Q: Name the reported TGI value associated with the molecule CCOC(=O)C(C(=O)OCC)C(=S)NC1OC(COC(C)=O)C(OC(C)=O)C(OC(C)=O)C1OC(C)=O (stereo not given)
Result: > 100 µM

Q: How about this molecule: `COc1cc(-c2cc(C(=O)N3CCN(C(=O)c4ccccc4NCc4cccs4)CC3)nc3cc(-c4ccccc4)nn23)cc(OC)c1OC`
Result: > 100 µM

Q: How about this molecule: `CCn1cc(C(=O)O)c(=O)c2cc(F)c(N3CCNCC3)nc21`
Result: > 100 µM

Q: How about this molecule: `CSc1c(C#N)c(=O)n(N)c2n[nH]c(C)c12`
Result: > 100 µM

Q: How about this molecule: CCOC(=O)C1=CN(Cc2ccccc2)C2ON=C(c3ccc(Cl)cc3)C2C1 (stereo not given)
Result: > 66.3 µM

Q: How about this molecule: COc1ccc(/C=C2\CCC(CN(C)C)C2=O)cc1 (stereo not given)
Result: 19.1 µM

Q: How about this molecule: `CC/C(=C(/c1ccc(Cl)cc1)c1ccc(OCCCN(C)C)cc1)c1ccc(OC)cc1`
Result: 16.3 µM

Q: How about this molecule: COC(=O)C(Cc1cc(OC)c(OC)c(OC)c1)(NC(=O)c1ccccc1)P(=O)(OC)OC (stereo not given)
Result: > 100 µM

Q: How about this molecule: O=c1n(CC2CO2)c2ccccc2n1CC1CS1 (stereo not given)
Result: > 100 µM

Q: How about this molecule: NC1=C(O)/C(=N/NS(=O)(=O)c2ccccc2)C(c2cccc(Cl)c2)O1 (stereo not given)
Result: > 100 µM

Further cases:
Q: Name the reported TGI value associated with the molecule `COc1ccc2c(c1)[n+](=O)c(C(=O)C/C(=N\NC(=O)C[N+](C)(C)C)C(=O)Nc1cc(Cl)ccc1Cl)c(C)n2O`
Result: > 100 µM

Q: How about this molecule: `Cc1cnc2n(c1=O)Cc1ccccc1CO2`
Result: 67.6 µM

Q: How about this molecule: `Cc1nc2c(ccc3[nH]c4ccccc4c32)s1`
Result: > 100 µM

---

# Tested on: UO-31 renal
# Procedure Summary: NCI tumour cell line growth inhibition, 48 h
Outcome Measure: TGI

Illustrative cases are given below, each with its answer.
Q: GET /values?readout=TGI&system=UO-31 renal&item= `Oc1ccccc1/C=N/N1C(=S)N(c2ccccc2)C(=Nc2ccccc2)C1=Nc1ccccc1`
Result: 33.1 µM

Q: How about this molecule: `O=C(O)COc1cccc2ccccc(=O)c12`
Result: > 100 µM

Q: How about this molecule: O=C1OC(/C=C/c2ccccc2)C(=O)C1=O (stereo not given)
Result: > 100 µM

Q: How about this molecule: `COc1cc(-c2cc(C(=O)N3CCN(C(=O)c4ccccc4NCc4cccs4)CC3)nc3cc(-c4ccccc4)nn23)cc(OC)c1OC`
Result: > 100 µM

Shift focus to the following entry.
Q: GET /values?readout=TGI&system=UO-31 renal&item= Fc1cccc(C2SCc3nc4ccccc4n32)c1 (stereo not given)
Result: > 100 µM

---

# Tested on: SN12C renal
# Procedure Summary: NCI tumour cell line growth inhibition, 48 h
Outcome Measure: log10 TGI (log10 of the value in µM)
Hi team, quick reminder: these entries are log10 of TGI (µM).

Q: Name the reported log10 TGI value associated with the molecule `Nc1[nH]nc2c1Cc1c(n(Cc3ccc(Cl)cc3)c3ccccc13)C(=O)N2`
Result: 1.45

Q: How about this molecule: COc1ccccc1N1C(=O)/C(=C\c2ccccc2)SC1c1cc(OC)c(OC)c(OC)c1 (centres undefined)
Result: 1.94

Q: How about this molecule: `C[C@H](OC(=O)/C=C/c1ccc(O)c(O)c1)[C@H](C)OC(=O)/C=C/c1ccc(O)c(O)c1`
Result: 1.53

Q: How about this molecule: NC(CSC(c1ccccc1)(c1ccccc1)c1ccc(Br)cc1)C(=O)O (centres undefined)
Result: 1.70

Q: How about this molecule: `COc1cc(/C=C/C(=O)c2ccc(SC)cc2)cc(OC)c1OC`
Result: 0.95

Q: How about this molecule: `Nc1ncnc2c1c(-c1ccc(Oc3ccccc3)cc1)nn2C[C@H]1SSC[C@H]1O`
Result: 0.67

Q: How about this molecule: `COc1ccc(-c2nn(C(=O)c3cc(OC)c(OC)c(OC)c3)c3cc(N)ccc23)cc1`
Result: 1.03

Q: How about this molecule: COc1cc(/C=C2\CCCC3=C2N=C2SC=NN2C3c2cc(OC)c(OC)c(OC)c2)cc(OC)c1OC (centres undefined)
Result: 0.85

Shift focus to the following entry.
Q: Name the reported log10 TGI value associated with the molecule COc1ccc(/C=C2\CCC(CN(C)C)C2=O)cc1 (centres undefined)
Result: 1.52
